# Measured on: UniProt:Q8ILY1
# Sequence (Q8ILY1 entry or part of it): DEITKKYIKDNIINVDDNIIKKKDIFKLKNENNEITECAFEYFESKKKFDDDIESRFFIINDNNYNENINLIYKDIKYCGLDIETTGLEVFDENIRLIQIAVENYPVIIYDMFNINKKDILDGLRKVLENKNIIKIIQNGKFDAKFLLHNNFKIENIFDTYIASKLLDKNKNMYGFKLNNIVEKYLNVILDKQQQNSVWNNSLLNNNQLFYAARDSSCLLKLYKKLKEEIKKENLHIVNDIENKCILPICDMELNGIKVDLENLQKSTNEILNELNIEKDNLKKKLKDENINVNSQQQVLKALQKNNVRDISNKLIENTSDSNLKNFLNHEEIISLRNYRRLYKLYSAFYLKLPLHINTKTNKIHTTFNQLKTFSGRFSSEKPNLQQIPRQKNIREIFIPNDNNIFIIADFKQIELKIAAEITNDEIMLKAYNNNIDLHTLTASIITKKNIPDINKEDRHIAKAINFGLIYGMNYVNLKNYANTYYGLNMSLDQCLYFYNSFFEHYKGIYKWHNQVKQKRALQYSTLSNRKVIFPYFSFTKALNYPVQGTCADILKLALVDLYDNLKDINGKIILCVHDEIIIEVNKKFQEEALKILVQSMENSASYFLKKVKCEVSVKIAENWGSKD
# Experimental protocol: Fluorescence-based high-throughput DNA polymerase assay (molecular beacon), primary screen and dose-response;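 note: test concentration in µM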
# Assay type: biochemical
# Measurement parameters: DRC-2, 90', concentration 2.5

| Compound | % inhibition ApPOL 90' / % |
| --- | --- |
| O=[N+]([O-])c1cc2c(cc1CN1CCCCCC1)OCO2 | 9 |
| Cn1nc(C(=O)N2CCc3c(nc4cc(-c5ccccc5)[nH]n4c3=O)C2)c2ccccc21 | 4.38 |
| O=C(Nc1nnc(-c2cccs2)o1)c1ccc([N+](=O)[O-])o1 | -0.446 |
| CC1=NNC(=O)C1Oc1ccc(Cl)cc1Cl (centres unmarked) | 1.69 |
| CS(=O)(=O)c1cccc(C(=O)Nc2nnc(-c3ccno3)o2)c1 | -0.356 |
| CCOc1ccccc1-c1nc(-c2ccc(=O)[nH]c2)no1 [Molecule 76, CCOc1ccccc1c1onc(n1)c1ccc(=O)[nH]c1] | -0.625 |
| CO/N=C(\C(=O)N[C@@H]1C(=O)N2C(C(=O)[O-])=C(CSc3nc(=O)c([O-])nn3C)CSC12)c1csc(N)n1.[Na+].[Na+] (some centres unmarked) | -8 |
| COc1cc(/C=C2\S/C(=N/C(C)=O)NC2=O)cc(Br)c1OCC(=O)O | 1.23 |
| O=C(NNC(=O)C(F)(F)Sc1ccccc1)c1ccsc1 [Molecule 68, O=C(C(Sc1ccccc1)(F)F)NNC(=O)c1cscc1] | 2.82 |
| CCSc1nnc(NC(=O)Cc2csc(NC(=O)c3cnccn3)n2)s1 | -4.46 |
| CN1CC(=Cc2ccco2)C(=O)C(=Cc2ccco2)C1 | 17 |
| O=[N+]([O-])c1cc2c(cc1CN1CCN(c3cccc(Cl)c3)CC1)OCO2 | -0.242 |
| O=C(Nc1ncc([N+](=O)[O-])s1)c1ccc2c(c1)C(=O)N(N1C(=O)c3ccccc3C1=O)C2=O | 8 |
| CN(C)C=CC(=O)c1ccccn1 | 0.656 |
| Cc1ncc(CSc2nc(C(C)(C)C)cs2)c(CO)c1O | 1.8 |
| COc1ccc2c(c1)CCc1c-2nc2ccc(Br)cc2c1C(=O)O | 15 |
| O=C(O)c1c(F)c(F)c(-c2c(F)c(F)c(C(=O)O)c(F)c2F)c(F)c1F | 2.67 |
